Where these numbers come from: patent US9249453B2

Below, each of the compounds is paired with its reported inhibition at 100 µM value.
# Target System: OR8H1 (Homo sapiens, UniProt Q8NGG4)
# Construct: expressed in transfected cells; host or cells: HEK293
# Sequence (Q8NGG4 whole entry): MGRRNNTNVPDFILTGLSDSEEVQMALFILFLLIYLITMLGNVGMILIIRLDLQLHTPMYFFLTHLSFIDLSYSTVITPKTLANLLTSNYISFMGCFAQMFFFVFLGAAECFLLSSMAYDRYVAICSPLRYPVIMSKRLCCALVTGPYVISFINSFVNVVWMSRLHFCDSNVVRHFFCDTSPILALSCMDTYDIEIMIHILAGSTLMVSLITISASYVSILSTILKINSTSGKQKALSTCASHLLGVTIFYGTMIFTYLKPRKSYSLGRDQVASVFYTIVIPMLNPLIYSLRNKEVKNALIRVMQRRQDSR
# Assay Protocol: Luciferase reporter assay: suppression of the skatole response of OR8H1 expressed in HEK293 cells
# Assay type: cell-based
# Recorded Conditions: 4 h; test substance 100 μM mixed with 300 μM skatole, HEK293 cells expressing OR8H1; read-out: Inhibition rate 8H1

These solved cases illustrate the format of a correct answer.
Value of inhibition at 100 µM reported for the compound CC1COCc2cc3c(cc21)C(C)(C)C(C)C3(C)C (stereo not drawn) [Galaxolide] is > 80%

Value of inhibition at 100 µM reported for the compound CC(C)Cc1ccc(CC(C)C=O)cc1 (stereo not drawn) is 50 to 80%

---
Value of inhibition at 100 µM reported for the compound CC(=O)OCCC(C)CCC=C(C)C (stereo not drawn) [citronellyl acetate, 3,7-Dimethyl-6-octen-1-yl acetate] is 20 to 50%

Value of inhibition at 100 µM reported for the compound CCCCCC1C(=O)CCC1CC(=O)OC (stereo not drawn) [methyl dihydrojasmonate] is 50 to 80%

Value of inhibition at 100 µM reported for the compound `CC(C)(C)c1ccc(CCC=O)cc1` is < 20%
